# credit: patent US20240262801A1

Below are pIC50 values measured for GST-tagged PTPN2 protein (Homo sapiens, UniProt P17706).
pIC50: −log10 of the molar value.
measurement-kind: pIC50

molecule: CC(C)(C)OC(=O)N1CCCC(NC(=O)Nc2cc(O)c(N3CC(=O)NS3(=O)=O)c(F)c2)C1 (stereo not drawn) [Example 106]
observed: > 8.30

molecule: CC(C)c1ccc(NC(=O)Nc2cc(O)c(N3CC(=O)NS3(=O)=O)c(F)c2)cc1 [Example 70]
observed: > 8.30

molecule: COc1cccc(-c2cc(O)c(N3CC(=O)NS3(=O)=O)c(F)c2)c1 [Example 1]
observed: 6.30 to 7.00

molecule: O=C1CN(c2c(O)cc(-c3cccc(NC4CCN(S(=O)(=O)Cc5ccccc5)CC4)c3)cc2F)S(=O)(=O)N1 [Example 12]
observed: 6.30 to 7.00

molecule: O=C1CN(c2c(O)cc(NC(=O)NC3CCNCC3)cc2F)S(=O)(=O)N1 [Example 99]
observed: 7.30 to 8.00

molecule: Cc1cccc(-c2cc(O)c(N3CC(=O)NS3(=O)=O)c(F)c2)c1 [Example 9]
observed: 6.30 to 7.00

molecule: Cc1ccc(S(=O)(=O)Nc2cc(O)c(N3CC(=O)NS3(=O)=O)c(F)c2)cc1 [Example 18]
observed: 7.30 to 8.00

molecule: O=C1CN(c2c(O)cc(-c3cccc(NC4CCN(S(=O)(=O)Cc5ccccc5Cl)CC4)c3)cc2F)S(=O)(=O)N1 [Example 11]
observed: 6.30 to 7.00

molecule: Cc1c(S(=O)(=O)Nc2cc(O)c(N3CC(=O)NS3(=O)=O)c(F)c2)cnn1C(F)F [Example 27]
observed: 7.00 to 7.30

molecule: CN(C1CCCCC1)S(=O)(=O)Nc1cc(O)c(N2CC(=O)NS2(=O)=O)c(F)c1 [Example 32]
observed: 7.30 to 8.00

molecule: O=C1CN(c2c(O)cc(NC(=O)NC3CCCNC3)cc2F)S(=O)(=O)N1 (stereo not drawn) [Example 104]
observed: > 8.30

molecule: Cc1ccccc1-c1cc(O)c(N2CC(=O)NS2(=O)=O)c(F)c1 [Example 6]
observed: ≤ 6.30
